Test: IANBD-channel fluorescence artefacts in buffer – biochemical, artefact control for cardiac RTF calcium sensitizer project, confirmation (AID 504382)
Conditions: IANBD fluorescence interference counterscreen, EC20 Ca2+, at 7.2 µM, stronger effect = higher value, scaled: EC20 calcium 0, EC100 calcium 100
Hit rate of the full screen: of about 2,500 compounds, about 460 (18%) were called active. Not all results are given here.
I'd be grateful if you could share measured fluorescence artifact activation for these entries.
Answers are plain numbers, in %.

Previously resolved entries follow.
CC(=O)Nc1cccc(NC(=O)CSc2nnc(Cc3cccn3C)n2CCc2ccccc2)c1
2.41
O=C(CN1C(=O)NC2(CCCCC2)C1=O)Nc1ccccc1Cl
0.05
CCc1ccc2c(c1)C(NC(C)=O)C(=O)N2CC (configuration not stated)
-0.03

Can you give me fluorescence artifact activation for all of these, one by one?
1. O=C1c2ccccc2C(Nc2cccnc2)N1Cc1ccccc1Cl (configuration not stated)
2. COc1cccc(OCCCn2cc(/C=C3/C(=N)N4C=C(C)SC4=NC3=O)c3ccccc32)c1
3. CCOCCCNc1ccc(-c2ccccc2)nn1
4. Cc1cc(-c2ccccc2C(=O)NC2CCCCC2)on1
5. CCC(=O)Nc1nc2c(c(=O)[nH]1)CCCC2

Reply |
1. 10.4
2. 0.05
3. 1.31
4. 0.27
5. 0.02

Can you give me fluorescence artifact activation for all of these, one by one?
1. O=C(CCc1nc2sc3c(c2c(=O)[nH]1)CCCC3)Nc1ccccc1Cl
2. Cc1cc(C)n2nc(SCC(=O)N(C)Cc3ccccc3)nc2n1
3. COC(=O)c1ccc(NC(=O)c2snnc2-c2ccccc2)cc1
4. CCc1cc[n+](-c2nc([O-])sc2C=O)cc1

Reply |
31.9
-0.05
1.82
2.36

---

Experiment: IANBD-channel fluorescence artefacts in buffer – biochemical, artefact control for cardiac RTF calcium sensitizer project, confirmation (AID 504382)
Conditions: IANBD fluorescence interference counterscreen, EC20 Ca2+, at 7.2 µM, stronger effect = higher value, scaled: EC20 calcium 0, EC100 calcium 100
Hit rate of the full screen: of about 2,500 compounds, about 460 (18%) were called active. A selection follows.
measurement.label: fluorescence artifact activation (%)
Numbers only, in %.

Cc1c(Br)c(C(=O)N2CCc3ccccc32)nn1C
0.13

Can you give me fluorescence artifact activation for all of these, one by one?
1. O=C(CC1C(=O)N(c2ccc(Cl)cc2)C(=S)N1CCc1ccncc1)Nc1ccc(F)cc1 (stereo not drawn)
2. COc1ccc(C(=O)Nn2cnc3scc(-c4cccs4)c3c2=O)c(O)c1
3. Cc1ccc(N=C2NC(=O)/C(=C/c3cccnc3)S2)cc1C
4. CCCCOC(=O)Cn1c2ccc(OC)cc2c2nc3ccccc3nc21
5. COc1ccc(C2C(C#N)=C(N)SC(N)=C2C#N)cc1OC

Reply |
1. -0.02
2. 7.33
3. 0.55
4. 0.92
5. 0.15

Can you give me fluorescence artifact activation for all of these, one by one?
1. O=C(c1ccccc1)N1CCN(CC#CC2(O)CCCCC2)CC1
2. CC1CCCCN1C(=O)Cn1nnc(-c2cccnc2)n1 (stereo not drawn)

Reply |
1. -0.05
2. 1.03

---

Assay: IANBD-channel fluorescence artefacts in buffer – biochemical, artefact control for cardiac RTF calcium sensitizer project, confirmation (AID 504382)
Details: IANBD fluorescence interference counterscreen, EC20 Ca2+, at 7.2 µM, scaled: EC20 calcium 0, EC100 calcium 100
Among all 2,500 compounds or so, about 460 (18%) were called active.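 How the source made its calls: active means mean activation above a cutoff of low control average plus 3 SD from the earlier screen (cut at about 12% in these data); inactive means the rest.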 A selection follows.
Give one outcome, nothing more. List: Yes (active), No (inactive)

CCS(=O)(=O)N1Cc2ccccc2CC1C(=O)Nc1ccc(OC)cc1OC (stereo unspecified)
No

Ask | Assay result, entry `COc1ccc(-c2cc3ncc(-c4ccccc4)c(N)n3n2)cc1` — outcome?
Reply | No

Ask | And for `Nc1ccc2nc(-c3ccccc3)cnc2c1` ?
Reply | Yes

Ask | And for CCN1CCN(C2=CC3=CC(=C(C#N)C#N)CCC3CC2)CC1 (stereo unspecified) ?
Reply | No

Ask | And for `Cc1cc(S(=O)(=O)NC(C)C)ccc1OCC(=O)NCc1ccccc1` ?
Reply | No

Ask | And for COc1ccc(NC(C)=O)cc1NC(=O)C1CCCN1C(=O)c1cccs1 (stereo unspecified) ?
Reply | No

---

Test: IANBD-channel fluorescence artefacts in buffer – biochemical, artefact control for cardiac RTF calcium sensitizer project, confirmation (AID 504382)
Details: IANBD fluorescence interference counterscreen, EC20 Ca2+, at 7.2 µM, scaled: EC20 calcium 0, EC100 calcium 100
Hit rate of the full screen: of about 2,500 compounds, about 460 (18%) were called active.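 How the source made its calls: active means mean activation above a cutoff of low control average plus 3 SD from the earlier screen (cut at about 12% in these data); inactive means the rest.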 The list is a sample of the results.
Give one outcome, nothing more. List: active, inactive

Ask | Assay result, entry `COc1ccc2nc3ccccc3nc2c1NC(=O)c1ccc(Br)cc1` — outcome?
Reply | active

Ask | And for COc1cc(NC(=O)C2CCCCN2)ccc1OCC(C)C (centres undefined) ?
Reply | inactive

Ask | And for NC(=O)CC(NC(=O)Cc1ccc(Cl)cc1)c1ccc(N2CCN(c3ccccn3)CC2)c([N+](=O)[O-])c1 (centres undefined) ?
Reply | active

Ask | And for `CCCN1C(=O)/C(=C/c2ccc(N3CCOCC3)cc2)NC1=S` ?
Reply | active

Ask | And for CC(=O)Nc1ccc(NC(=O)C(C)OC(=O)/C(C#N)=C/c2ccc(N(C)C)cc2)cc1 (centres undefined) ?
Reply | inactive

---

I'd be grateful if you could share measured fluorescence artifact activation for these entries.
Assay: IANBD-channel fluorescence artefacts in buffer – biochemical, artefact control for cardiac RTF calcium sensitizer project, confirmation (AID 504382)
Conditions: IANBD fluorescence interference counterscreen, EC20 Ca2+, at 7.2 µM, stronger effect = higher value, scaled: EC20 calcium 0, EC100 calcium 100
Out of some 2,500 compounds screened, about 460 (18%) were called active. A selection follows.
Give bare numbers, in %.

Previously resolved entries follow.
COC(=O)c1ccc(CSc2nnc(NCc3ccccc3)s2)o1
4.53
O=C(NCC(=O)N(Cc1cccs1)C(C(=O)NC1CCCCC1)c1ccncc1)c1ccco1 (stereo not given)
0.04

Can you give me fluorescence artifact activation for all of these, one by one?
1. COCCNC(=O)C(c1ccc(C)o1)N(Cc1ccc(F)cc1)C(=O)Cn1nnc2ccccc21 (stereo not given)
2. CCCNC(=O)c1ccc(N2CCC3(CC2)CC(c2cccc(Br)c2)=NO3)c(NC(=O)c2cccc(C)c2)c1

Reply |
[0.43, 3.63]

Can you give me fluorescence artifact activation for all of these, one by one?
1. CC(C)(Cc1cccc(CC(C)(C)C(=O)O)c1)C(=O)O
2. COc1ccc(/C=C2\SC(=S)N(CCCC(=O)Nc3ccccc3C(=O)O)C2=O)cc1OC
3. CCOc1cc2c(cc1/C=C/c1noc(C)c1[N+](=O)[O-])OC(C)C2 (stereo not given)
4. COc1ccc(Nc2cccc3ccccc23)cc1
5. C[C@H](CO)N1C[C@H](C)[C@@H](CN(C)C(=O)Nc2ccc(F)cc2)Oc2ccc(NS(C)(=O)=O)cc2C1=O
6. CC1(C(=O)Nc2nnc(SCc3ccccc3)s2)Cc2ccccc2C(=O)O1 (stereo not given)

Reply |
1. 0.07
2. 5.03
3. 145
4. 53.2
5. 0.09
6. 4.5

---

Assay: IANBD-channel fluorescence artefacts in buffer – biochemical, artefact control for cardiac RTF calcium sensitizer project, confirmation (AID 504382)
Settings: IANBD fluorescence interference counterscreen, EC20 Ca2+, at 7.2 µM, scaled: EC20 calcium 0, EC100 calcium 100
About 460 (18%) of roughly 2,500 compounds were called active.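 How the source made its calls: active means mean activation above a cutoff of low control average plus 3 SD from the earlier screen (cut at about 12% in these data); inactive means the rest.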 The list is a sample of the results.
Give one outcome, nothing more. List: active, inactive

CN1C/C(=C\c2ccc(N3CCOCC3)cc2)C(=O)/C(=C/c2ccc(N3CCOCC3)cc2)C1
inactive

Ask | Assay result, entry `O=C(CSCc1c(F)cccc1Cl)Nc1ccccc1C(=O)N1CCOCC1` — outcome?
Reply | inactive

Ask | And for `O=C1S/C(=C/c2ccc(N3CCOCC3)o2)C(=O)N1Cc1ccc(F)cc1` ?
Reply | active

Ask | And for `O=C1S/C(=C/c2ccc(N3CCOCC3)o2)C(=O)N1Cc1c(F)cccc1Cl` ?
Reply | inactive

Ask | And for `CCCN1C(=O)S/C(=C/c2ccc(N3CCOCC3)o2)C1=O` ?
Reply | active

Ask | And for `CC(C)OC(=O)CN1C(=O)S/C(=C/c2ccc(N3CCCCC3)o2)C1=O` ?
Reply | inactive

Ask | And for `O=C1S/C(=C\c2ccc(N3CCOCC3)o2)C(=O)N1Cc1c(F)cccc1Cl` ?
Reply | active

Ask | And for `O=C1S/C(=C\c2ccc(N3CCOCC3)o2)C(=O)N1Cc1ccc(F)cc1` ?
Reply | inactive

Ask | And for `O=C(O)c1ccccc1-c1ccc(/C=C2\SC(=O)N(c3ccccc3)C2=O)o1` ?
Reply | inactive

Ask | And for `O=C1N/C(=C\c2ccsc2)C(=O)N1Cc1ccc(F)cc1` ?
Reply | inactive

Data origin: PubChem BioAssay AID504382
